Target under test: Signal transducer and activator of transcription 3 (Homo sapiens, UniProt P40763)
Sequence (P40763 whole entry): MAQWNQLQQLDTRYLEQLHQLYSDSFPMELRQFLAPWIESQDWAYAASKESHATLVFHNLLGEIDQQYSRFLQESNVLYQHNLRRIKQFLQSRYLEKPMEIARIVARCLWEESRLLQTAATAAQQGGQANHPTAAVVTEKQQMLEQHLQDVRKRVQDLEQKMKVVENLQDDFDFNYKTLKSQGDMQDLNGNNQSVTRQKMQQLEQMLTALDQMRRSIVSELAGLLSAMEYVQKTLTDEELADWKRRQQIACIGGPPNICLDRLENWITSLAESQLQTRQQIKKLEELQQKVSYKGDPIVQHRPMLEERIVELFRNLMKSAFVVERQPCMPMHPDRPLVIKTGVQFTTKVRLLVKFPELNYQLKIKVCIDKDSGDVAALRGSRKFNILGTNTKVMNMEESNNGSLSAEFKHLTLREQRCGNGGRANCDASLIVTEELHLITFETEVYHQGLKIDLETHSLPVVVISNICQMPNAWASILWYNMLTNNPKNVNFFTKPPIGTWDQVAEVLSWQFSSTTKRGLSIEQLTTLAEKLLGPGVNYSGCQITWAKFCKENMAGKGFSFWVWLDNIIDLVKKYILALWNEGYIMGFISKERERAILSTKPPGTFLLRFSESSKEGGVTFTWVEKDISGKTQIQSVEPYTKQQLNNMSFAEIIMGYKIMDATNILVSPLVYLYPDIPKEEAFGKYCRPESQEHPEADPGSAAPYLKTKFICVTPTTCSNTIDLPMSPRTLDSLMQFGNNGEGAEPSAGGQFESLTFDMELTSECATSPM
Test name: Inhibition of STAT3 (unknown origin) dimerization at 50 uM after 60 mins by fluorescence polarization assay
Reported inhibition values for the following compounds.
Record the value in %, omitting the unit from your answer.

A selection of reference data follows.
smiles_code=CN(CC(=O)N(Cc1ccc(C2CCNCC2)cc1)c1ccc(O)c(C(=O)O)c1)S(=O)(=O)c1ccc(-c2ccccc2)cc1 measurement_name=inhibition value_observed=14.4
smiles_code=COc1ccc(CN(C(=O)c2ccc(Oc3ccccc3)cc2)c2ccc(O)c(C(=O)O)c2)cc1OC measurement_name=inhibition value_observed=13

# context switch: different compound, same inhibition
Data request: I'd like to know its inhibition. The compound in question is `CCCCCCCc1ccc(CN(C(=O)c2ccccn2)c2ccc(O)c(C(=O)O)c2)cc1`
Data returned: 21
